Test system: MDA-MB-436 cells
Assay: CTG Protocol (MDA-MB-436 GI50), antiproliferative activity
Type: cell-based, human
Details: Homo sapiens, 168 h; MDA-MB-436 cells (BRCA1 mutation), 7-day incubation, CellTiter-Glo
# GI50 per record follows

Worked examples follow.
COc1ncnc(C2CC2)c1-c1ncc2cc(-c3c(C)noc3C)c(=O)n(Cc3ccc(-c4nc(C(F)(F)F)cn4C4CC4)cc3)c2n1 [Compound I-155] | < 10 nM
COc1nn(C)cc1-c1cc2cnc(-c3c(OC)ncnc3C3CC3)nc2n(Cc2ccc(-c3nc(C(F)(F)F)cn3C3CC3)cc2)c1=O [Compound I-164] | 10 to 100 nM
COc1cc(Cn2c(=O)ccc3c(C)nc(-c4c(OC)ncnc4C4CC4)nc32)ccc1-c1nc(C(F)(F)F)cn1C1CC1 [Compound I-152] | < 10 nM

COc1ncnc(C2CC2)c1-c1ncc2ccc(=O)n(Cc3ccc(-c4nc(C(F)(F)F)cn4C)cc3)c2c1F [Compound I-50] yielded GI50 of 10 to 100 nM

[2H]C([2H])([2H])n1cc(C(F)(F)F)nc1-c1ccc(C([2H])([2H])n2c(=O)ccc3cnc(-c4c(OC)ncnc4C4CC4)nc32)cc1 [Compound I-37] yielded GI50 of 10 to 100 nM

CCn1cc(C(F)(F)F)nc1-c1ccc(Cn2c(=O)c(C(=O)N3CCN(C)CC3)cc3cnc(-c4c(OC)ncnc4C4CC4)nc32)cc1 [Compound I-30] yielded GI50 of 10 to 100 nM

---

Test system: MDA-MB-436 cells
Test: CTG Protocol (MDA-MB-436 GI50), antiproliferative activity
Format: cell-based, human
Conditions: Homo sapiens, 168 h; MDA-MB-436 cells (BRCA1 mutation), 7-day incubation, CellTiter-Glo
readout_label: GI50

COc1ncnc(C2CC2)c1-c1nc(C)c2cc(-c3ncnn3C)c(=O)n(Cc3ccc(-c4nc(C(F)(F)F)cn4C4CC4)cc3)c2n1 [Compound I-167] | 10 to 100 nM
COc1ncnc(C2CC2)c1-c1nc(C)c2cc(-c3cnn(C)c3)c(=O)n(Cc3ccc(-c4nc(C(F)(F)F)cn4C4CC4)cc3)c2n1 [Compound I-148] | < 10 nM

Reading of GI50 for COc1cc(Cn2c(=O)ccc3cnc(-c4c(OC)ncnc4C4CC4)nc32)cc(F)c1-c1nc(C(F)(F)F)cn1C [Compound 73] with MDA-MB-436 cells: 10 to 100 nM

Reading of GI50 for COc1ncnc(C2CC2)c1-c1ncc2ccc(=O)n(Cc3ccc(-c4nc(C(F)(F)F)ccc4OC(C)C)cc3)c2n1 [Compound 75] with MDA-MB-436 cells: 10 to 100 nM

Reading of GI50 for COc1ncnc(C2CC2)c1-c1ncc2ccc(=O)n(Cc3ccc(-c4nc(C(F)(F)F)cn4C)c(F)c3)c2n1 [Compound 72] with MDA-MB-436 cells: < 10 nM

Reading of GI50 for COc1ncnc(C2CC2)c1-c1ncc2ncc(=O)n(Cc3ccc(-c4nc(C(F)(F)F)cn4C(C)C)cc3)c2n1 [Compound I-29] with MDA-MB-436 cells: < 10 nM

---

Test system: MDA-MB-436 cells
Assay: CTG Protocol (MDA-MB-436 GI50), antiproliferative activity
Format: cell-based, human
Conditions: Homo sapiens, 168 h; MDA-MB-436 cells (BRCA1 mutation), 7-day incubation, CellTiter-Glo
# GI50 per record follows

CCn1cc(C(F)(F)F)nc1-c1ccc(Cn2c(=O)cnc3cnc(-c4c(OC)ncnc4C4CC4)nc32)cc1 | < 10 nM
COc1ncnc(C2CC2)c1-c1ncc2c(n1)N(Cc1ccc(-c3nc(C(F)(F)F)cn3C(C)C)cc1)C(=O)N(C)C2 | 10 to 100 nM
COc1ncnc(C2CC2)c1-c1ncc2cc(-c3cn(C)nn3)c(=O)n(Cc3ccc(-c4nc(C(F)(F)F)cn4C4CC4)cc3)c2n1 | 10 to 100 nM
COc1ncnc(C2CC2)c1-c1ncc2cc(-c3cncc(F)c3)c(=O)n(Cc3ccc(-c4nc(C(F)(F)F)cn4C4CC4)cc3)c2n1 | 10 to 100 nM

"CCc1ncnc(OC)c1-c1ncc2ccc(=O)n(Cc3ccc(-c4nc(C(F)(F)F)cn4C)cc3)c2n1" yielded GI50 of 10 to 100 nM

"COc1ncnc(C2CC2)c1-c1ncc2c(n1)N(Cc1ccc(-c3nc(C(F)(F)F)cn3C(C)C)cc1)C(=O)NC2" yielded GI50 of 10 to 100 nM

"COc1ncnc(C2CC2)c1-c1ncc2ccc(=O)n(Cc3ccc(-c4nc(C(F)(F)F)c[nH]4)cc3)c2n1" yielded GI50 of 10 to 100 nM

"COc1ncnc(C2CC2)c1-c1ncc2ccc(=O)n(Cc3ccc(-c4nc(C(F)(F)F)cn4CC(F)F)cc3)c2n1" yielded GI50 of 10 to 100 nM

"COc1ncnc(C2CC2)c1-c1ncc2ccc(=O)n(Cc3ccc(-c4cccc(C(F)(F)F)c4)cc3)c2n1" yielded GI50 of 100 to 1000 nM

"COc1ncnc(C2CC2)c1-c1ncc2ccc(=O)n(Cc3ccc(-c4ncccc4C)cc3)c2n1" yielded GI50 of 10 to 100 nM

"CCc1ncnc(C2CC2)c1-c1ncc2ccc(=O)n(Cc3ccc(-c4nc(C(F)(F)F)cn4C)cc3)c2n1" yielded GI50 of 100 to 1000 nM

"COc1cc(Cn2c(=O)ccc3cnc(-c4c(OC)ncnc4C4CC4)nc32)cc(F)c1-c1nc(C(F)(F)F)cn1C1CC1" yielded GI50 of < 10 nM

"COc1ncnc(C2CC2)c1-c1ncc2ccc(=O)n(Cc3ccc(-c4nc(F)ccc4OC(C)C)cc3)c2n1" yielded GI50 of 10 to 100 nM

"COc1ncnc(C2CC2)c1-c1ncc2cc(-c3cn(C)cn3)c(=O)n(Cc3ccc(-c4nc(C(F)(F)F)cn4C4CC4)cc3)c2n1" yielded GI50 of 10 to 100 nM

"COc1ncnc(C2CC2)c1-c1ncc2cc(-c3cnn(C)n3)c(=O)n(Cc3ccc(-c4nc(C(F)(F)F)cn4C4CC4)cc3)c2n1" yielded GI50 of 10 to 100 nM
